Target: Acetylcholinesterase (Rattus norvegicus)
Sequence (P37136 whole entry): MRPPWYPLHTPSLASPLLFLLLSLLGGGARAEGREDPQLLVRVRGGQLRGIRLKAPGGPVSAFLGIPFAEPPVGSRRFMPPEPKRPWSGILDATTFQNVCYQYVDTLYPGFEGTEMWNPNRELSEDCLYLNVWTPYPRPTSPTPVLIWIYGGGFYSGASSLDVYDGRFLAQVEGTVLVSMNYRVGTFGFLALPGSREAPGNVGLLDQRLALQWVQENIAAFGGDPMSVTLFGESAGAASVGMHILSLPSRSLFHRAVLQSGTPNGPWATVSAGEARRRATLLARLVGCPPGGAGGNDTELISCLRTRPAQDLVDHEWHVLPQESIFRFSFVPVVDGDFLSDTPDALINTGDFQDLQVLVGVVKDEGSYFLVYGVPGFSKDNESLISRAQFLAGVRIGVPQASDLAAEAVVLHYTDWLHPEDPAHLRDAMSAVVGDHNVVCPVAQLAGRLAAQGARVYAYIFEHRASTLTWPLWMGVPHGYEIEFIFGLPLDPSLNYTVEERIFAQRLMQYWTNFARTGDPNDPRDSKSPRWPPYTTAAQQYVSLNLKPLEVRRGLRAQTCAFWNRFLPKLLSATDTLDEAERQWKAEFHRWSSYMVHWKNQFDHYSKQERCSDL
pIC50: −log10 of the molar value.
# label = T if pIC50 >= 6 else F

COMPOUND: CCN(CC)C(C)c1ccc(OC(=O)N(C)C)c(OC)c1 (configuration not stated)
TEST SYSTEM: Acetylcholinesterase (Rattus norvegicus)
ASSIGNED LABEL: T

COMPOUND: COc1cc(CN2CCOCC2)ccc1OC(=O)N(C)C
TEST SYSTEM: Acetylcholinesterase (Rattus norvegicus)
ASSIGNED LABEL: F

COMPOUND: COc1cccc(CN2CCCCC2)c1OC(=O)N(C)C
TEST SYSTEM: Acetylcholinesterase (Rattus norvegicus)
ASSIGNED LABEL: F

COMPOUND: CCN(CC)Cc1ccc(OC(=O)N(C)C)c(OC)c1
TEST SYSTEM: Acetylcholinesterase (Rattus norvegicus)
ASSIGNED LABEL: T

COMPOUND: COc1cc(CN2CCCC2)ccc1OC(=O)N(C)C
TEST SYSTEM: Acetylcholinesterase (Rattus norvegicus)
ASSIGNED LABEL: T

COMPOUND: COc1ccc(C(C)N2CCOCC2)cc1OC(=O)N(C)C (configuration not stated)
TEST SYSTEM: Acetylcholinesterase (Rattus norvegicus)
ASSIGNED LABEL: F

COMPOUND: COc1cc(C(C)N2CCOCC2)ccc1OC(=O)N(C)C (configuration not stated)
TEST SYSTEM: Acetylcholinesterase (Rattus norvegicus)
ASSIGNED LABEL: F

COMPOUND: COc1ccc(CN2CCOCC2)cc1OC(=O)N(C)C
TEST SYSTEM: Acetylcholinesterase (Rattus norvegicus)
ASSIGNED LABEL: F

COMPOUND: COc1cc(CN2CCCCC2)ccc1OC(=O)N(C)C
TEST SYSTEM: Acetylcholinesterase (Rattus norvegicus)
ASSIGNED LABEL: T

COMPOUND: CCN(CC)C(C)c1ccc(OC)c(OC(=O)N(C)C)c1 (configuration not stated)
TEST SYSTEM: Acetylcholinesterase (Rattus norvegicus)
ASSIGNED LABEL: F

COMPOUND: COc1cc(C(C)N2CCCC2)ccc1OC(=O)N(C)C (configuration not stated)
TEST SYSTEM: Acetylcholinesterase (Rattus norvegicus)
ASSIGNED LABEL: T

COMPOUND: COc1ccc(C(C)N2CCCC2)cc1OC(=O)N(C)C (configuration not stated)
TEST SYSTEM: Acetylcholinesterase (Rattus norvegicus)
ASSIGNED LABEL: F

COMPOUND: COc1ccc(CN2CCCC2)cc1OC(=O)N(C)C
TEST SYSTEM: Acetylcholinesterase (Rattus norvegicus)
ASSIGNED LABEL: F

COMPOUND: COc1cc(C(C)N2CCCCC2)ccc1OC(=O)N(C)C (configuration not stated)
TEST SYSTEM: Acetylcholinesterase (Rattus norvegicus)
ASSIGNED LABEL: T
